# TESTED_TARGET: human TLR7 (Homo sapiens, UniProt Q9NYK1)
# Construct: host or cells: HEK-Blue-hTLR7
# Sequence (Q9NYK1 27-1049): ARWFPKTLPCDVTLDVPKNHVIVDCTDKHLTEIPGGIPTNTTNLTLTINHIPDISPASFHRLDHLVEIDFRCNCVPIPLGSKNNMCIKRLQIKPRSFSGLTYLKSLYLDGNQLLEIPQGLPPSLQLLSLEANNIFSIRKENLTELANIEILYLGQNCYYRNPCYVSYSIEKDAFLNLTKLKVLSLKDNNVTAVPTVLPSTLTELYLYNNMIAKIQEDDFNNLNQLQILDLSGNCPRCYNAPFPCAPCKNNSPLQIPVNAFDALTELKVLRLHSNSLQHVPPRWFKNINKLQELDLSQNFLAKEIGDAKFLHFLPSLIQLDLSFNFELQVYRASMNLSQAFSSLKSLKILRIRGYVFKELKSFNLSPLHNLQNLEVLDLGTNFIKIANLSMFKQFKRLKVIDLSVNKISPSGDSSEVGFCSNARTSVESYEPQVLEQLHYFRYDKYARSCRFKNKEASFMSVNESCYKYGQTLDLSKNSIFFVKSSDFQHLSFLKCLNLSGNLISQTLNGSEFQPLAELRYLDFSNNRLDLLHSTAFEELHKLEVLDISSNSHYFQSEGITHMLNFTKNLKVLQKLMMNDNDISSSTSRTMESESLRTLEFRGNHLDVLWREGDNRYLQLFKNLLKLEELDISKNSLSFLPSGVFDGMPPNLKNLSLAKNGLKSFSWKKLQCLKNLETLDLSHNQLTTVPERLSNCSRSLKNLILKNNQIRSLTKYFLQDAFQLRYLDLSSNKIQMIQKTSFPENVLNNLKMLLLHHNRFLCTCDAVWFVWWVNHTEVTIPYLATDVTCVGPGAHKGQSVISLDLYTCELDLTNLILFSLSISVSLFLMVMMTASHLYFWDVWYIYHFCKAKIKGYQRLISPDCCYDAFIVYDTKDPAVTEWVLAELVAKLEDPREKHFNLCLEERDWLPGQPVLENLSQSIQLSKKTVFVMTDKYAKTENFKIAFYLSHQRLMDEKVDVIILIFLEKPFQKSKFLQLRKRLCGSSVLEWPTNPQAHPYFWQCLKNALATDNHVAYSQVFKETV
# ASSAY_INFO: TLR7 reporter gene assay (HEK-Blue-hTLR7, NFkB/AP-1 inducible SEAP)
# Format: cell-based
# TEST_CONDITIONS: HEK-Blue-hTLR7; highest concentration without any activity; read-out: activity towards TLR7 (no activity up to a concentration of)
pEC50: −log10 of the molar value.
QUANTITY_KIND: pEC50

Query pEC50 on human TLR7 (Homo sapiens, UniProt Q9NYK1) for CCc1nc2c(N)nc3ccccc3c2n1CCCCNC1CCOCC1 < 4.52
